- ASSAYED_TARGET: Gal(b1-4)GlcNAc(b1-3)Gal(b1-4)GlcNAc(b1-3)Gal(b1-4)GlcNAc(b1-3)Gal(b1-4)GlcNAc(b1-3)Gal(b1-4)GlcNAc(b1-3)Gal(b1-4)GlcNAc(b1-2)Man(a1-3)[Gal(b1-4)GlcNAc(b1-3)Gal(b1-4)GlcNAc(b1-3)Gal(b1-4)GlcNAc(b1-3)Gal(b1-4)GlcNAc(b1-3)Gal(b1-4)GlcNAc(b1-3)Gal(b1-4)GlcNAc(b1-2)Man(a1-6)]Man(b1-4)GlcNAc(b1-4)GlcNAc
- MEASUREMENT_DESCRIPTION: glycan array binding signal (z-score within array); higher = stronger binding
- CONDITION_DETAILS: glycan notation: IUPAC condensed, linker removed
The sample as a whole holds a higher share of the strongest signals than the screen did.
Overview of reported glycan array binding signal (z-score) across a group of binders:
OUTCOME_MEASURE: glycan array binding signal (z-score)

BINDER	MEASURED
DC-ASGPR L+GEE (Homo sapiens) (protein) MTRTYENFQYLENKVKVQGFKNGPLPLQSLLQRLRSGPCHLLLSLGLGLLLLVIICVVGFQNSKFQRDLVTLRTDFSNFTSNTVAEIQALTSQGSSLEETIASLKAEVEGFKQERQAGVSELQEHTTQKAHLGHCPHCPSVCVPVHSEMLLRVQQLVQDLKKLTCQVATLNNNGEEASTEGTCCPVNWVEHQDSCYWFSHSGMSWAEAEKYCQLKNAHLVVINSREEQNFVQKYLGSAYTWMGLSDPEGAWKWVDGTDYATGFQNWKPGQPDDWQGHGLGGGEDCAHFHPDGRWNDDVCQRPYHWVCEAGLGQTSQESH	0.991
EUL D1A second (Oryza sativa) (protein) GAATACTIGGVPVHTVRVFSAAGEDYCLTVRNGTACLAPKNPRDDYQHWIKDMRHSNKIRDEEGYPAFALVNKVTGEAIKHSTGQGHPVKLVPYNPEYQDESVLWTESKDVGKGFRCIRMVNNIYLNFDAFHGDKDHGGIHDGTEIVLWKWCEGDNQRWKILPWILEQKLISEEDLNSAVDHHHHHH	0.069
MUB70 (Lactobacillus reuteri) (protein) CVHVQYIDGETDQMLRQDDLDGYTDETIPYSTAEGIKKFEGDGYELFKDNFPAGEKFDNDDTNDQFYTVIF	2.37
DrGal3 (Danio rerio) (protein) MDLSDALDAPPQQNNQQAGGPVWPGQPANPVWPGQPANPTWPGQPNQPAWPGQPNQQWPGQPGQPTAPGWPGPAPQTGPYGAPGQAPQVLTVPLDFPLQNGAYNKMLITINGEVKPNAKQFTVNLRRGNDIAFHINPRFSEGGKPVIVRNSMIGNNWGREERELPSFPFVPGKPFEMKILITDTEYKVAVNKSHLLEFKHRVFELNQITGLSIYNDVTLSTVNVETLQ	5.72
SP15308B-bot-339-22-339 (Bacteroides ovatus) (protein) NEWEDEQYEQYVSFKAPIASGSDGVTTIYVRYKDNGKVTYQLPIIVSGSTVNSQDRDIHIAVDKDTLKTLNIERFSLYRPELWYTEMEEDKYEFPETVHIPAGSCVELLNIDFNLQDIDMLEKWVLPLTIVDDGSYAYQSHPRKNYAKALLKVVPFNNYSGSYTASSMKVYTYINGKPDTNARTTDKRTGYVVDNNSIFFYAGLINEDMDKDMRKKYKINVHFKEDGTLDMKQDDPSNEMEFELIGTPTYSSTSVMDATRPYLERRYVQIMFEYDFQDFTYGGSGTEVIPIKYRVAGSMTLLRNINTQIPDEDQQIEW	6.94
GSL-I-B4 (Griffonia simplicifolia) (protein) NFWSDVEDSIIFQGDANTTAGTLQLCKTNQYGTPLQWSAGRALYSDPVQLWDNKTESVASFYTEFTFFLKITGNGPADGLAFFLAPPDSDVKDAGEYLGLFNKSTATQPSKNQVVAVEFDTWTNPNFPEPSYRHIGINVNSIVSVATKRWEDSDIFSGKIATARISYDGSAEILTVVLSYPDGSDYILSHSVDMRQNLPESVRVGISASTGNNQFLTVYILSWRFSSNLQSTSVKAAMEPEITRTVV	-0.133
EEA (Euonymus europaeus) (protein) MASTIIATGPTYRVYCRAAPNYNMIVGKGVAFLAPIDETNELQYWYKDDTYSYIKDEAGLPAFSLVNKATGLTLKHSNHHPVPVKLVTYNPNVVDESVLWSQADDRGDGYSAIRSLTNPASHLEAAPLNDWSYNGAIIMGGVWIDAYNQQWKIEPHTG	-0.159
Mincle (Bos taurus) (protein) MNSSTSPASQTERRCFSFQLFSWAIAGTSILLLSACFITRCVVTYSIFQLCDEKKFQPPGDSMELSCYNDGSGSVKNCCPLKWFHFQSSCYLFSPDTMSWRASLKNCSSMGAHLVVINTQEEQEFLYYTKPRKKEFYIGLTDQVTEGQWQWVDGTPFTKSLSFWDAGEPNNLVIVEDCATIRDSSNPRQNWNDVPCFFNMFRVCEMPERKI	0.667
Langerin K313I (Homo sapiens), Q9UJ71 (protein) STLNAQIPELKSDLEKASALNTKIRALQGSLENMSKLLKRQNDILQVVSQGWKYFKGNFYYFSLIPKTWYSAEQFCVSRNSHLTSVTSESEQEFLYKTAGGLIYWIGLTKAGMEGDWSWVDDTPFNKVQSARFWIPGEPNNAGNNEHCGNIKAPSLQAWNDAPCDITFLFICKRPYVPSEP	0.037
AT5G24760(45) (Arabidopsis thaliana), Q8LEB2 (protein) MSASSSSFEQPQVITCNAAVAWRAGEPLVMEEVEVSPPQPLEIRIKVVCTSLCRSDLSAWESQSLLPRIFGHEAAGIVESIGEGVTEFEKGDHVLAVFTGECGSCRHCISGKSNMCQVLGMERKGLMHSDQKTRFSIKGKPVYHYCAVSSFSEYTVVHSGCAVKVDPLAPLHKICLLSCGVAAGLGAAWNVADVQKGSSVVIFGLGTVGLSVAQGAKLRGAAQILGVDINPAKAEQAKTFGVTDFINSNDLSEPIPQVIKRMTGGGADFSFECVGDTGIATTALQSCSDGWGMTVTLGVPKAKPEVSAHYGLFLSGKSLKGTLFGGWKPKSDLPSLIDKYMNKEIMIDEFITHNLSFDEINKAFVLMREGKCLRCVLHMPK	-0.887

All values here come from the supplement of paper PMC8728848.
